System: BT-474 cells
Test: crystal violet (CV) cell viability assay, single and combined with TMZ
Assay type: cell-based
Conditions: Homo sapiens, BT-474, 72 h; read-out: IC50 of TMZ, alone or combined
PROPERTY: IC50 (mM)
Provide only the numeric value, understood in mM.

Consider the compound shown here: Cn1nnc2c(C(N)=O)ncn2c1=O [TMZ, temozolomide] What is its recorded IC50? 2.21

====

Tested on: HCC1937 cells
Assay: crystal violet (CV) cell viability assay, single and combined with TMZ
Format: cell-based
Details: Homo sapiens, HCC1937, 72 h; read-out: IC50 of TMZ, alone or combined
PROPERTY: pIC50
Please note pIC50 is a logarithmic value: minus log10 of concentration in mol/L. Answer with that number alone.

Reported pIC50 for Cn1nnc2c(C(N)=O)ncn2c1=O [TMZ, temozolomide] : what is it? 2.43
